Assay: Solubility in aqueous media of varying pH
Assay type: physicochemical
Conditions: aqueous with cosolvent or surfactant or cyclodextrin; 90% Water:10% glycerol, ambient temperature; compound 22 as acetate salt, salt free equivalent; read-out: Solubility
*1 amine or outer side, *2 acyl side, *3 side chain or, on linkers, in order; H or OH if unused. Where a SMILES comes first, the peptide text is derived from it. Bridges are numbered along the chain shown (N, C = ends). [ ]: non-standard residue; d: D form. The star is where a group is joined. pTerphenylCO(4''-OnC5H11) = CCCCCOc1ccc(-c2ccc(-c3ccc(C(=O)*)cc3)cc2)cc1; Orn(4R-OH,5R-OH) = O=C([C@H](C[C@@H](O)[C@@H](O)N[*:3])N[*:1])[*:2]; hTyr(3S-OH,4S-OH) = N[C@H](C(=O)O)[C@H](O)[C@@H](O)c1ccc(O)cc1; Pro(3S-OH,4S-Me) = C[C@H]1CN[C@H](C(=O)O)[C@H]1O; Hyp = O=C(O)[C@@H]1C[C@@H](O)CN1
experimentalReadout: solubility

molecule | result
CCCCCOc1ccc(-c2ccc(-c3ccc(C(=O)N[C@H]4C[C@@H](O)[C@@H](O)NC(=O)[C@@H]5[C@@H](O)[C@@H](C)CN5C(=O)[C@H]([C@@H](C)O)NC(=O)[C@H]([C@H](O)[C@@H](O)c5ccc(O)cc5)NC(=O)[C@@H]5C[C@@H](O)CN5C(=O)[C@H]([C@@H](C)O)NC4=O)cc3)cc2)cc1 [Anidulafungin, anidulafungin, reference compound] ({pTerphenylCO(4''-OnC5H11)}-[Orn(4R-OH,5R-OH)]T[Hyp][hTyr(3S-OH,4S-OH)]T[Pro(3S-OH,4S-Me)]; lactam 1-C) | < 10 µg/mL
